Assay Remarks: metabolic stability in mouse liver microsomes
Assay type: in vitro ADME
Condition Info: mouse, liver microsomes, pH 7.4
List of half-life values.

# input Suppose we examine the molecule `CC(=O)c1ccc(OC(C)C)c(-n2c(CN3CCN(C(=O)COc4ccc(Cl)cc4)CC3)nc3ccccc3c2=O)c1` ; what half-life value has been reported?
# output < 5 min

# input And for `CC(C)Oc1ccc(C(=O)CN2CCNCC2)cc1-n1c(CN2CCN(C(=O)COc3ccc(Cl)cc3)CC2)nc2ccccc2c1=O` ?
# output > 90 min

# input And for CC(C)Oc1ccc(C=O)cc1-n1c(CN2CCN(C(=O)COc3ccc(Cl)cc3)CC2)nc2ccccc2c1=O [AE, aldehyde erastin, reference compound] ?
# output < 5 min

Numbers sourced from paper PMC4653046.
